System: U251 CNS
Experiment: NCI tumour cell line growth inhibition, 48 h
recordedEndpoint: TGI

Example cases with answers are listed next.
COC(=O)C1Cc2c(OC)ccc(OC)c2C(O)C1C(=O)OC (stereo unspecified); > 100 µM
CCOC(=O)/C=C/c1c(C)[nH]c(=O)[nH]c1=O; > 250 µM

Please state, for each entry, its recorded TGI.
1. COC(=O)c1cc(=O)nc2cc3cccccc3n12
2. C=C1C(=O)C23[C@H](O)C1CC[C@H]2[C@]12COC3(O)[C@@H](O)[C@@H]1C(C)(C)CC[C@@H]2O
3. CC1(C)OCC(C2OC3OC(C)(C)OC3C2c2ccccc2)O1 (stereo unspecified)
4. CCCN(CCC)c1ccc(C=O)c(Cl)c1
5. COc1cccc(CNc2ncnc3c2ncn3C2OC(CO)C(O)C2O)c1O (stereo unspecified)
6. O=Cc1ccc(OC[C@H]2COC(=O)N2)cc1
7. CCOC(=O)C1Cc2ccc3c4c(ccc(c24)C1)CC(C(=O)OCC)C3
8. O=C(NN1C(=O)C(Cl)C1c1cccc([N+](=O)[O-])c1)c1ccccc1O (stereo unspecified)

[reply]
["> 100 µM", "18.9 µM", "> 100 µM", "29.9 µM", "> 100 µM", "> 100 µM", "> 100 µM", "> 100 µM"]

[ask] // fetch TGI for `C/C(=N\NC(=S)N1CCC(N2CCCCC2)CC1)c1ccccn1` ; system: U251 CNS
[reply] 9.86 µM
